The reported measurements were obtained from patent US20100255008A1.

Property: IC50; scope: individual binders
target under test: Mouse soluble TWEAK (mouse) (UniProt O54907)
protocol text: receptor interaction ELISA: antibody pre-incubated with mouse soluble TWEAK, binding to coated mouse Fn14:Fc
Answer in ng/mL, number only, no unit symbol.

Some binders with known IC50 results, for comparison:
Antibody 16 (antibody, V domains shown) VH: QVQLQESGPGLVKPSETLSLTCAVSGYSIRSGYWWSWIRQPPGKGLEWIGQIYNKGNTDNSPSLKSRVTISVDTSKNQFSLKLSSVTAADTAVYYCARVFWDDAYFDVWGQGTMVTVSS VL: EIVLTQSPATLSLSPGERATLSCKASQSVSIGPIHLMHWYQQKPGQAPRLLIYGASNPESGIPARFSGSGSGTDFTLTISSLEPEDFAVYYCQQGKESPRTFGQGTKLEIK ... 7
TW205 (antibody, V domains shown) VH: QIHLQESGLGLVKPSQSLTLTCSVTGFSITTPDYSWHWIRQFPGQTLEWMGFLYYEGDTYYNPSLKSRISIARDASKNQFFLQLKSVTTEDTATYFCVRRKYSGYGNWFAYWGQGTQVTVSS VL: QPVLTQAPSASASLRASVKLTCTLSSQHSTYYIEWYQQHPDKAPRYVMYVDSDGSHIKGDGVPDRFSGSSSGARRYLSISNLQPEDEAIYHCGVYDSTAGAVFGSGTQLTVLG ... 5.1

Now let's try a different one.
In: Retrieve IC50 measured for Antibody 23 (antibody, V domains shown) VH: QVQLQESGPGLVKPSETLSLTCTVSGYSIRSGYWWSWIRQPPGKGLEWIGQIYNKGNTDNNPALKSRVTISVDTSKNQFSLKLSSVTAADTAVYYCARVFWDDAYFDVWGQGTMVTVSS VL: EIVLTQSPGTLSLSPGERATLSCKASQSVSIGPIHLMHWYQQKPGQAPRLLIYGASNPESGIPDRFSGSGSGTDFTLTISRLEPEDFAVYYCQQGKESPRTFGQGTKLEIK and print it.
Out: 6
